# protocol.text: chemical genetic growth profiling, strain panel (AID 1159580);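 note: tested at 20 µM; growth read once vehicle control cultures reached saturation at 30 °C; 1 = growth at the plate median or of vehicle wells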
# conditions: S. cerevisiae deletion strains, growth OD, locus YNR049C, strain mso1, stronger effect = lower value
In all, about 5,500 compounds went through this assay and about 2,000 (36%) were called active. Roughly 18% stayed inconclusive and do not appear here. The list shows a part of the results.
Exercise: state measured normalized growth for each of the compounds provided.
Write no unit; give the number alone.

The reported normalized growth of the compound O=C(O)C1=C(CSc2nnnn2CS(=O)(=O)O)CS[C@@H]2C(NC(=O)[C@H](O)c3ccccc3)C(=O)N12 (stereo not given in full) was 0.983

The reported normalized growth of the compound `Cn1c(=O)c2c(ncn2C)n(C)c1=O` was 0.956

The reported normalized growth of the compound `CCCc1ncc(C[n+]2ccccc2C)c(N)n1` was 0.987

The reported normalized growth of the compound CC(C)c1cc2c(c(O)c1O)[C@@]1(C(=O)O)CCCC(C)(C)C1CC2 (stereo not given in full) was 0.997

The reported normalized growth of the compound `O=c1c(O)c(-c2ccccc2)oc2cc(O)ccc12` was 0.895

The reported normalized growth of the compound `Oc1cccc2cccnc12` was 0.0568

The reported normalized growth of the compound COc1ccccc1OCC(O)COC(N)=O (stereo not given) was 0.99

The reported normalized growth of the compound `O=C(O)CCC(=O)OC[C@@H](NC(=O)C(Cl)Cl)[C@H](O)c1ccc([N+](=O)[O-])cc1` was 0.972

The reported normalized growth of the compound `O=c1c(O)c(-c2ccccc2)oc2ccccc12` was 0.616

The reported normalized growth of the compound COCC1=C(C(=O)OC(C)OC(=O)OC(C)C)N2C(=O)[C@@H](NC(=O)/C(=N\OC)c3csc(N)n3)[C@H]2SC1 (stereo not given in full) was 0.98

====

# protocol.text: chemical genetic growth profiling, strain panel (AID 1159580);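 note: tested at 20 µM; growth read once vehicle control cultures reached saturation at 30 °C; 1 = growth at the plate median or of vehicle wells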
# conditions: S. cerevisiae deletion strains, growth OD, locus YNL207W, strain RIO2
Among all 5,500 compounds or so, about 2,000 (36%) were called active. Another 18% or so got no clear call; they are omitted. No stated cut-off is given here; in the data, active means normalized growth mostly below about 0.91 (no sharp cut-off); inconclusive means no clear call, values can overlap the other calls; inactive means mostly above about 0.92. Some of the results follow.
Just give me one of these, please: active, inactive

Each molecule tested received a call. Report the one for `CC(C)Sc1c(Cl)cccc1NC(=O)Nc1ccccc1` .
inactive

Each molecule tested received a call. Report the one for `O=C(Nc1ccc(F)cc1)c1cc(Br)ccc1O` .
inactive

Each molecule tested received a call. Report the one for `CC(C)Sc1c(Cl)cccc1NC(=O)Nc1cccc(C(F)(F)F)c1` .
inactive

Each molecule tested received a call. Report the one for N#CC(C(=O)Nc1cccc(C(F)(F)F)c1)C(=S)Nc1ccccc1Cl (stereo unspecified) .
inactive

Each molecule tested received a call. Report the one for `O=C1c2ccccc2C(=O)c2sccc21` .
active

Each molecule tested received a call. Report the one for `COC(=S)Nc1cc(Cl)cc(Cl)c1` .
inactive

====

# protocol.text: chemical genetic growth profiling, strain panel (AID 1159580);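 note: tested at 20 µM; growth read once vehicle control cultures reached saturation at 30 °C; 1 = growth at the plate median or of vehicle wells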
# conditions: S. cerevisiae deletion strains, growth OD, locus YCL029C, strain bik1, stronger effect = lower value
Out of some 5,500 compounds screened, about 2,000 (36%) were called active. About 18% were inconclusive and are not listed. The list shows a part of the results.
Exercise: state measured normalized growth for each of the compounds provided.
Write no unit; give the number alone.

The reported normalized growth of the compound COC(=O)C[C@H]1C(C)(C)[C@@H](OC(C)=O)[C@@H]2CC3=C4CC(=O)O[C@@H](c5ccoc5)[C@]4(C)CCC3[C@@]1(C)C2=O (stereo partly specified) was 0.998

The reported normalized growth of the compound `COc1ccc(-c2c(O)c3c(OC)c4c(cc3oc2=O)OC(C)(C)C=C4)cc1` was 0.937

The reported normalized growth of the compound `O=C1c2cccc(O)c2C(=O)c2c(O)cccc21` was 0.808

The reported normalized growth of the compound `O[C@H]1[C@H](O)[C@@H](O)C2OC[C@H]1O2` was 0.986

The reported normalized growth of the compound `COc1cc2cccc(OC)c(=O)c2c(OC)c1OC` was 1.02

The reported normalized growth of the compound `O=c1c(O)cccc2cc(O)c(O)c(O)c12` was 0.443

The reported normalized growth of the compound `CCC[C@@H]1C[C@@H](C(=O)N[C@H]([C@H]2O[C@H](SC)[C@H](O)[C@@H](O)[C@H]2O)[C@H](C)O)N(C)C1` was 0.996

The reported normalized growth of the compound `COc1cc(OC)c2c(OC)c(-c3ccc4c(c3)OCO4)c(=O)oc2c1` was 0.995

The reported normalized growth of the compound C[C@H]1C(=O)CCC2[C@]3(C)CC[C@@]4(C)C5CC(C)(C)CC[C@]5(C)CC[C@]4(C)C3CC[C@@]21C (stereo partly specified) was 0.968

The reported normalized growth of the compound CC1(C)CC23C(=O)CCC(O)C2(C)CCC13 (stereo unspecified) was 1

The reported normalized growth of the compound C=C(C)C1Cc2c(ccc(C(=O)O)c2O)O1 (stereo unspecified) was 0.979
